Test system: U251 CNS
Assay: NCI tumour cell line growth inhibition, 48 h
Known TGI of a selection of compounds
MEASUREMENT NAME: TGI

INSERT INTO results (compound, measured_result) VALUES
  ('N/C(=C\C(=O)n1nc(-c2ccccc2)cc1N)c1ccccc1', '19.2 µM'),
  ('Cc1n[nH]c(=O)n1C1CCCC1', '> 100 µM'),
  ('CCN(CC)c1ccc(/C=C2/C[N+](C)(C)C/C(=C/c3ccc(N(CC)CC)cc3)C2=O)cc1', '9.24 µM'),
  ('COc1cc2cc(C(=O)CCC(=O)O)sc2cc1OC', '> 100 µM'),
  ('C/C(=C\c1ccccc1)C(=O)NCc1ccc(C(=O)NCCC(C)C)cc1', '> 100 µM'),
  ('C#CCN(Cc1nc2cc(C(F)(F)F)ccc2nc1-c1ccccc1)c1ccc(OC(F)(F)F)cc1', '> 100 µM'),
  ('Cc1ccccc1C1=[N+]([O-])c2ccccc2C1=O', '31 µM'),
  ('O=c1c2ccccc2c(Br)c(Br)c2ccccc12', '29 µM'),
  ('C=[N+](CNC(=O)CNC(=O)C(Cc1ccc([N+](=O)[O-])cc1)NC(=O)OC(C)(C)C)C(=O)CNC(=O)C(Cc1ccc([N+](=O)[O-])cc1)NC(=O)OC(C)(C)C (stereo unspecified)', '> 100 µM'),
  ('Cc1ccc2c(c1)c1nc3cc(C)c(C)cc3nc1n2CCN(C)C', '8.85 µM'),
  ('COc1ccc2c(c1)=C(C=C1C=CN(O)C=C1)C(=O)N=2', '> 100 µM'),
  ('Nc1cc2c(nnn2C2OC(COCc3ccccc3)C(OCc3ccccc3)C2OCc2ccccc2)c(=O)[nH]1 (stereo unspecified)', '> 100 µM'),
  ('COc1cc(C(=O)N2N=C(c3ccc(S(C)(=O)=O)cc3)CC2c2ccco2)cc(OC)c1OC (stereo unspecified)', '> 100 µM'),
  ('COc1cc(OC)cc(OCc2ccc3nc(-c4ccccc4)c(Cl)nc3c2)c1', '59.9 µM'),
  ('C#CCNC(=O)NCCCC(NC(C)=O)C(=O)NCc1ccccc1 (stereo unspecified)', '> 100 µM'),
  ('CN(CCCCCl)P(=O)(OCc1ccc([N+](=O)[O-])o1)OCC1OC(n2ccc(N)nc2=O)C(F)(F)C1O (stereo unspecified)', '> 86.5 µM'),
  ('Cc1ncc([N+](=O)[O-])n1CCN(C)C(=O)CCCn1ccnc1[N+](=O)[O-]', '> 100 µM'),
  ('O=C(C=Nc1ccccc1C(=O)[O-])c1cccs1.O=C(C=Nc1ccccc1C(=O)[O-])c1cccs1.[Co+2]', '> 100 µM'),
  ('Cc1cc(NS(=O)(=O)c2ccc(NC(=O)c3ccc4[nH]c5ccccc5c(=O)c4c3)cc2)no1', '> 100 µM'),
  ('CCOC(=O)/C(=N\OC)C(O)C(F)(F)F (stereo unspecified)', '> 100 µM'),
  ('O=S(=O)(Cc1ccc(Cl)cc1Cl)c1ccc(Cl)cc1', '> 100 µM');

----------
System: SNB-19 CNS
Assay: NCI tumour cell line growth inhibition, 48 h
Known TGI of a selection of compounds
MEASUREMENT NAME: TGI

INSERT INTO measurements (compound, system_tested, measured_result) VALUES
  ('O=C(N/N=C(/COc1ccc(Cl)cc1)N=Cc1cccnc1)c1ccncc1', 'SNB-19 CNS', '> 100 µM'),
  ('O=C(C=P(c1ccccc1)(c1ccccc1)c1ccccc1)c1cccc(-c2cccc([N+](=O)[O-])c2)c1', 'SNB-19 CNS', '> 100 µM'),
  ('Cc1cc(Cl)cc2c(N=Nc3ccccc3[N+](=O)[O-])c(O)[nH]c12', 'SNB-19 CNS', '> 100 µM'),
  ('Cn1ccnc1C(=O)/C=C/c1ccc(C(=O)Nc2ccc(S(F)(F)(F)(F)F)cc2)cc1', 'SNB-19 CNS', '> 14.3 µM'),
  ('O=c1c2c3c(sc2n2c(-c4cc(-c5ccccc5)no4)nnc2n1Cc1ccccc1)CCCC3', 'SNB-19 CNS', '> 100 µM'),
  ('COc1cc2c(cc1OCCCCCOc1cc3c(cc1OC)C(=O)N1CC(F)C[C@H]1C=N3)N=C[C@@H]1CC(F)CN1C2=O (stereo partly specified)', 'SNB-19 CNS', '> 100 µM'),
  ('C/C(=C\c1ccccc1)C(=O)NCc1ccc(C(=O)NCCC(C)C)cc1', 'SNB-19 CNS', '> 100 µM'),
  ('CC1(C)/C(=N\O)C2(C#N)CCC1C2 (stereo unspecified)', 'SNB-19 CNS', '> 100 µM'),
  ('COC(=O)C1=C(C(=O)OC)C(Cc2ccccc2)(OO)OC1=O (stereo unspecified)', 'SNB-19 CNS', '58.9 µM'),
  ('CC(=O)Nc1ccc(/C=C/C(=O)c2ccccc2)cc1', 'SNB-19 CNS', '34.1 µM'),
  ('Cc1cc2cc3cc(C)c(N(C)C)cc3[n+](C)c2cc1N(C)C', 'SNB-19 CNS', '> 100 µM'),
  ('CC1(Cl)CC2OC3(Br)C=CC(C)(O)C2(CC1Br)C3(C)C (stereo unspecified)', 'SNB-19 CNS', '> 100 µM'),
  ('CCN(CC)c1ccc(/C=C2/C[N+](C)(C)C/C(=C/c3ccc(N(CC)CC)cc3)C2=O)cc1', 'SNB-19 CNS', '19.4 µM'),
  ('CCOc1ccc(NC(=O)C(=O)NO)cc1', 'SNB-19 CNS', '> 100 µM'),
  ('COC(=O)[C@H](Cc1ccccc1)NC(=O)N1CCCN(C(=O)N[C@@H](Cc2ccccc2)C(=O)OC)CCCN(C(=O)N[C@@H](Cc2ccccc2)C(=O)OC)CCC1', 'SNB-19 CNS', '74.8 µM'),
  ('Cc1c(C#N)c2ccccc2c2nc3ccccc3n12', 'SNB-19 CNS', '> 100 µM'),
  ('N#CC1Cc2cc3c(cc21)OCO3 (stereo unspecified)', 'SNB-19 CNS', '> 100 µM'),
  ('COc1ccc2c(c1)C(=O)N1CCOC1C2C(=O)O (stereo unspecified)', 'SNB-19 CNS', '> 100 µM'),
  ('O=C1CCCC2C(O)CCC[C@H]12 (stereo partly specified)', 'SNB-19 CNS', '> 100 µM'),
  ('CSc1nc(NC2OCC(OC(C)=O)C(OC(C)=O)C2OC(C)=O)c(N=C(C)C(C)=O)c(=O)[nH]1 (stereo unspecified)', 'SNB-19 CNS', '> 100 µM'),
  ('COc1cc2c(cc1O)-c1c(cnn1-c1ccc([N+](=O)[O-])cc1)CCC2', 'SNB-19 CNS', '> 100 µM');
